Values were extracted from ChEMBL document CHEMBL5053551.

Can you tell me half-life at 10 µM for the items I'm about to list?
Test: Stability of compound in BALB/c mouse liver microsomes assessed as half life at 10 uM preincubated for 5 mins in presence of NADPH regenerating system followed by microsomal addition and measured upto 60 mins by HPLC analysis
Assay type: ADME, Microsome
Details: time 65 min
One number for each entry, in min.

Value of measured half-life at 10 µM for the entry "CC(C)Cn1ccc2cc(C(=O)NCc3ccc(NS(=O)(=O)C4CC4)cc3C(F)(F)F)ccc21" : 53

Value of measured half-life at 10 µM for the entry "CS(=O)(=O)Nc1ccc(CNC(=O)c2ccc3c(ccn3Cc3cccc(F)c3)c2)c(C(F)(F)F)c1" : 61

Now consider the entry below.
Value of measured half-life at 10 µM for the entry "O=C(NCc1ccc(NS(=O)(=O)C2CC2)cc1C(F)(F)F)c1ccc2c(ccn2Cc2cccc(F)c2)c1" : 59

* * *

Target: Bifunctional epoxide hydrolase 2 (Homo sapiens, UniProt P34913)
Sequence (P34913 whole entry): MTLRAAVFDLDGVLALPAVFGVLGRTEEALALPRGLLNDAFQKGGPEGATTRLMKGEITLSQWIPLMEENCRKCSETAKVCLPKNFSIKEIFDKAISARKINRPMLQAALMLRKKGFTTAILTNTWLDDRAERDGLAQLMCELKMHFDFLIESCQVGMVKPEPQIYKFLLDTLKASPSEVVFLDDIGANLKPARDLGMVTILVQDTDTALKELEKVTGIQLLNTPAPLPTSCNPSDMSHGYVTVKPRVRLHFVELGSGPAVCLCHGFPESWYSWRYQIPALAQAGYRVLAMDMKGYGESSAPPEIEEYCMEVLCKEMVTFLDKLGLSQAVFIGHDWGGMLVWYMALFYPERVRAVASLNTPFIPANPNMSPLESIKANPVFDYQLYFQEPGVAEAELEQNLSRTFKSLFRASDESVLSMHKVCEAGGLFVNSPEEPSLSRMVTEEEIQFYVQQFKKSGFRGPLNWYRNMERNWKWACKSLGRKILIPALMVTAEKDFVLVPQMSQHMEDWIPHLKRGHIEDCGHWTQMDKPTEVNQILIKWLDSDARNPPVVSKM
Test: Inhibition of recombinant human full length sEH assessed as reduction in 6-methoxy-2-naphthaldehyde formation using PHOME as substrate preincubated for 30 to 45 mins followed by substrate addition and measured after 30 to 45 mins by fluorescence assay
Can you tell me IC50 for the items I'm about to list?
Give bare numbers, in nM.

Some solved cases for reference:
Param item: "O=C(NCc1ccccc1C(F)(F)F)c1ccc2c(c1)[nH]c(=O)n2Cc1ccccc1" ; param system: Bifunctional epoxide hydrolase 2 (Homo sapiens, UniProt P34913); output IC50: 82

Param item: "O=C(NCc1ccccc1C(F)(F)F)c1ccc2c(c1)[nH]c(=O)n2Cc1ccc(Cl)cc1Cl" ; param system: Bifunctional epoxide hydrolase 2 (Homo sapiens, UniProt P34913); output IC50: 100

Param item: "O=C(NCc1ccccc1C(F)(F)F)c1ccc2c(c1)[nH]c(=O)n2Cc1cccc(F)c1" ; param system: Bifunctional epoxide hydrolase 2 (Homo sapiens, UniProt P34913); output IC50: 153

Now consider the entry below.
Param item: "O=C(NCc1ccccc1C(F)(F)F)c1ccc2c(c1)[nH]c(=O)n2Cc1ccc(F)cc1" ; param system: Bifunctional epoxide hydrolase 2 (Homo sapiens, UniProt P34913); output IC50: 142
